- Tested on: 997726-040-R-J2-PDC tumor spheroids, viability
- measurement_notes: Anticancer human tumor 997726-040-R-J2-PDC patient-derived squamous cell lung carcinoma cell line growth inhibition [PI3K]
- measurement_setup: second compound 3.16 µM; first compound 0.00316 µM; stronger effect = lower value; spheroids with HUVEC and MSC
Mark TRUE only when viability, T/C stays strictly below 30%. Values equal to the cut-off are FALSE.

See these solved cases before continuing.
• CC(=O)c1c(C)c2cnc(Nc3ccc(N4CCNCC4)cn3)nc2n(C2CCCC2)c1=O + Cc1nc(NC(=O)N2CCCC2C(N)=O)sc1-c1ccnc(C(C)(C)C(F)(F)F)c1 = TRUE
• CC(=O)c1c(C)c2cnc(Nc3ccc(N4CCNCC4)cn3)nc2n(C2CCCC2)c1=O + CC(Nc1ncnc2nc[nH]c12)c1cc2cccc(Cl)c2c(=O)n1-c1ccccc1 = FALSE

// next entry
Input line: Hi there! Is viability, T/C for Cn1ncnc1[C@H]1c2n[nH]c(=O)c3cc(F)cc(c23)N[C@@H]1c1ccc(F)cc1 + CC(Nc1ncnc2nc[nH]c12)c1cc2cccc(Cl)c2c(=O)n1-c1ccccc1 below 30%, do you know?
Output line: FALSE

----------
The following compounds are shown together with reported viability, T/C values.
- Tested on: 997726-040-R-J2-PDC tumor spheroids, viability
- measurement_notes: Anticancer human tumor 997726-040-R-J2-PDC cell line growth inhibition [PI3K];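 further: spheroids exposed to compounds for seven days before readout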
- measurement_setup: second compound 3.16 µM; first compound 1 µM; stronger effect = lower value; spheroids with HUVEC and MSC
Field: numeric (%). Do not append units.

Guide cases for viability, T/C, answers given:
• CNC(=O)c1ccc(N2C(=S)N(c3ccc(C#N)c(C(F)(F)F)c3)C(=O)C2(C)C)cc1F + CC(Nc1ncnc2nc[nH]c12)c1cc2cccc(Cl)c2c(=O)n1-c1ccccc1 = 80
• C#Cc1c(F)ccc2cc(O)cc(-c3ncc4c(N5CC6CCC(C5)N6)nc(OCC56CCCN5CC(F)C6)nc4c3F)c12 (stereo not given) + CC(Nc1ncnc2nc[nH]c12)c1cc2cccc(Cl)c2c(=O)n1-c1ccccc1 = 72.3
• C=CC(=O)N1CCN(c2nc(=O)n(-c3c(C)ccnc3C(C)C)c3nc(-c4c(O)cccc4F)c(F)cc23)C(C)C1 (stereo not given) + Cc1nc(NC(=O)N2CCCC2C(N)=O)sc1-c1ccnc(C(C)(C)C(F)(F)F)c1 = 28.6
• C=CC(=O)N1CCN(c2nc(=O)n(-c3c(C)ccnc3C(C)C)c3nc(-c4c(O)cccc4F)c(F)cc23)C(C)C1 (stereo not given) + CC(Nc1ncnc2nc[nH]c12)c1cc2cccc(Cl)c2c(=O)n1-c1ccccc1 = 85.3

Input line: Read off the recorded viability, T/C for CC1(C)CCC(CN2CCN(c3ccc(C(=O)NS(=O)(=O)c4ccc(NCC5CCOCC5)c([N+](=O)[O-])c4)c(Oc4cnc5[nH]ccc5c4)c3)CC2)=C(c2ccc(Cl)cc2)C1 + CC(Nc1ncnc2nc[nH]c12)c1cc2cccc(Cl)c2c(=O)n1-c1ccccc1
Output line: 72.4

----------
- System: 997726-040-R-J2-PDC tumor spheroids, viability
- measurement_notes: Anticancer human tumor 997726-040-R-J2-PDC cell line growth inhibition [PI3K];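 further: spheroids exposed to compounds for seven days before readout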
- measurement_setup: curve of first compound; second compound 0.0316 µM; spheroids with HUVEC and MSC
pIC50: −log10 of the molar value.
The following molecules are listed with their measured pIC50 values.

Reference set, count: 3
* Cn1ncnc1[C@H]1c2n[nH]c(=O)c3cc(F)cc(c23)N[C@@H]1c1ccc(F)cc1 + Cc1nc(NC(=O)N2CCCC2C(N)=O)sc1-c1ccnc(C(C)(C)C(F)(F)F)c1 | < 7.00
* CCN1CCN(Cc2ccc(Nc3ncc(F)c(-c4cc(F)c5nc(C)n(C(C)C)c5c4)n3)nc2)CC1 + COc1c(OCCCN2CCOCC2)ccc2c3n(c(=NC(=O)c4cnc(N)nc4)nc12)CCN3 | > 8.50
* CC(Cn1ccc(-c2ccc(C#N)c(Cl)c2)n1)NC(=O)c1cc(C(C)O)[nH]n1 (stereo not given) + CC(Nc1ncnc2nc[nH]c12)c1cc2cccc(Cl)c2c(=O)n1-c1ccccc1 | < 5.00

Input line: Tell me its pIC50 given CNC(=O)c1ccc(N2C(=S)N(c3ccc(C#N)c(C(F)(F)F)c3)C(=O)C2(C)C)cc1F + Cc1nc(NC(=O)N2CCCC2C(N)=O)sc1-c1ccnc(C(C)(C)C(F)(F)F)c1 as the entry.
Output line: < 5.00

Input line: Could you please provide reported pIC50 for CCN1CCN(Cc2ccc(Nc3ncc(F)c(-c4cc(F)c5nc(C)n(C(C)C)c5c4)n3)nc2)CC1 + CC(Nc1ncnc2nc[nH]c12)c1cc2cccc(Cl)c2c(=O)n1-c1ccccc1 ? Thanks!
Output line: < 6.00
